target: THP1 dual cell (Homo sapiens); construct: R848 (TLR7/8)-stimulated ISRE reporter; experiment: THP1 DUAL/ISRE cell reporter assay (R848 stimulated); assay type: cell-based; details: 24 h treatment before R848 stimulation; read-out: IC50 24 h
MEASUREMENT_LABEL: IC50 (µM)

- COMPOUND: "CCOc1ccc(-c2cc(C(=O)NCCCN3CCCCC3C)c3ccccc3n2)cc1 (stereo not drawn)"
  MEASUREMENT_LABEL: "IC50"
  ASSAY_VALUE: 2.23
- COMPOUND: "CCOc1ccc(-c2cc(C(=O)NCCCN3CCCCCC3)c3ccccc3n2)cc1"
  MEASUREMENT_LABEL: "IC50"
  ASSAY_VALUE: 3.49
- COMPOUND: "CCOc1ccc(-c2cc(C(=O)NCCCN3CCCCC3)c3ccccc3n2)cc1"
  MEASUREMENT_LABEL: "IC50"
  ASSAY_VALUE: 4.16

* * *

Parameter: pIC50. Scope: all listed entries.
target: THP1 dual cell (Homo sapiens, UniProt Q8N697); construct: R848 (TLR7/8)-stimulated ISRE reporter; assay: THP1 DUAL/ISRE cell reporter assay (R848 stimulated); assay type: cell-based; conditions: 48 h treatment before R848 stimulation; read-out: IC50 48 h
Sequence (Q8N697 whole entry): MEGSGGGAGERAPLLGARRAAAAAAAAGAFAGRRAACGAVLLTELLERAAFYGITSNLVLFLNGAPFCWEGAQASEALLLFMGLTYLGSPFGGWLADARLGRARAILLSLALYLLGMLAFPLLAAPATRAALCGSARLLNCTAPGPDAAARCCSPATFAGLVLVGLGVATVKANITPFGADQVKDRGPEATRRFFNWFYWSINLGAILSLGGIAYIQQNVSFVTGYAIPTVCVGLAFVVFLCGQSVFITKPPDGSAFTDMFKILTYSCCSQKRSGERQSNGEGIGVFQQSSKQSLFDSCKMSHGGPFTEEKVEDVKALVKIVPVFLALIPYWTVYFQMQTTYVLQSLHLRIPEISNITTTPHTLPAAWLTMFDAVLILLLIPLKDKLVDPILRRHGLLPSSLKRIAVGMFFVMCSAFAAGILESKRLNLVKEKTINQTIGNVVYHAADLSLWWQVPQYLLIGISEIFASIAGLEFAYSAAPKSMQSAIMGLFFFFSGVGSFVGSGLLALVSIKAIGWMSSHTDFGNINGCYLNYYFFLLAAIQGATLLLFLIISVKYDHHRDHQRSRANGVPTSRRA
pIC50: −log10 of the molar value.

- COMPOUND: "CCOc1ccc(-c2cc(C(=O)NCCCN3CCCCCC3)c3ccccc3n2)cc1"
  pIC50: 5.53
- COMPOUND: "CCOc1ccc(-c2cc(C(=O)NCCCN3CCCCC3C)c3ccccc3n2)cc1 (stereo not drawn)"
  pIC50: 6.03
- COMPOUND: "CCOc1ccc(-c2cc(C(=O)NCCCN3CCCCC3)c3ccccc3n2)cc1"
  pIC50: 5.62
